growth at 10 µM listing for selected compounds.
- ASSAY INFO: Growth inhibition of human HOP92 cells assessed as cell growth at 10 uM incubated for 48 hrs by sulforhodamine B assay relative to control
- Format: functional
- COND: HOP-92, 48 h, read-out: Activity

- STRUCTURE SMILES STRING: "CC(C)[C@@]12C[C@@H](NC(=O)CO)[C@@](C)(O1)[C@@H]1CC[C@@H](C)[C@H]1[C@@H]2OC(=O)/C=C/c1ccccc1"
  VALUE REPORTED: "88.6%"
- STRUCTURE SMILES STRING: "CC(C)[C@@]12C[C@@H](NC(=O)CO)[C@@](C)(O1)[C@@H]1CC[C@@H](C)[C@H]1[C@@H]2OC(=O)/C=C/C1CCCCC1"
  VALUE REPORTED: "120%"
- STRUCTURE SMILES STRING: "CC(C)[C@@]12C[C@@H](NC(=O)CF)[C@@](C)(O1)[C@@H]1CC[C@@H](C)[C@H]1[C@@H]2OC(=O)/C=C/c1ccccc1"
  VALUE REPORTED: "75.8%"

We next turn to a different compound, shown below.
Briefly, growth at 10 µM measured for `C/C(=C\C(=O)O[C@H]1[C@@H]2[C@H](C)CC[C@H]2[C@]2(C)O[C@@]1(C(C)C)C[C@H]2NC(=O)CO)c1ccccc1` : 87.1%

====

Entries and their growth at 10 µM
- System: SN12C
- ASSAY INFO: Growth inhibition of human SN12C cells assessed as cell growth at 10 uM incubated for 48 hrs by sulforhodamine B assay relative to control
- Format: functional
- COND: read-out: Activity

Here are 4 compounds together with their reported answers.
- STRUCTURE SMILES STRING: "CC(C)[C@@]12C[C@@H](NC(=O)CO)[C@@](C)(O1)[C@@H]1CC[C@@H](C)[C@H]1[C@@H]2OC(=O)/C=C/c1ccccc1"
  TARGET ENTITY: "SN12C"
  VALUE REPORTED: "48.8%"
- STRUCTURE SMILES STRING: "CC(C)[C@@]12C[C@@H](NC(=O)CO)[C@@](C)(O1)[C@@H]1CC[C@@H](C)[C@H]1[C@@H]2OC(=O)c1ccc2ccccc2c1"
  TARGET ENTITY: "SN12C"
  VALUE REPORTED: "66.7%"
- STRUCTURE SMILES STRING: "CC(C)[C@@]12C[C@@H](NC(=O)CF)[C@@](C)(O1)[C@@H]1CC[C@@H](C)[C@H]1[C@@H]2OC(=O)/C=C/c1ccccc1"
  TARGET ENTITY: "SN12C"
  VALUE REPORTED: "103%"
- STRUCTURE SMILES STRING: "C/C(=C\\C(=O)O[C@H]1[C@@H]2[C@H](C)CC[C@H]2[C@]2(C)O[C@@]1(C(C)C)C[C@H]2NC(=O)CO)c1ccccc1"
  TARGET ENTITY: "SN12C"
  VALUE REPORTED: "84.6%"

Now consider a different compound.
Recorded growth at 10 µM (compound `CC(C)[C@@]12C[C@@H](NC(=O)CO)[C@@](C)(O1)[C@@H]1CC[C@@H](C)[C@H]1[C@@H]2OC(=O)/C=C/C1CCCCC1` ): 86.7%

====

- ASSAY INFO: Toxicity in po dosed mouse administered through gavage
- Format: organism-based
- COND: in vivo
METRIC NAME: MTD (mg/kg)
Just the number in mg/kg, nothing appended.

Entry under test: `CC(C)[C@@]12C[C@@H](NC(=O)CO)[C@@](C)(O1)[C@@H]1CC[C@@H](C)[C@H]1[C@@H]2OC(=O)/C=C/c1ccccc1` . Its MTD was 50

====

- ASSAY INFO: Growth inhibition of human SNB75 cells incubated for 48 hrs by sulforhodamine B assay
- Format: functional
- COND: SNB-75, 48 h, read-out: pTGI (converted)
Reported values of TGI for individual entries
Numeric answer only, unit µM assumed.

- STRUCTURE SMILES STRING: "CC(C)[C@@]12C[C@@H](NC(=O)CO)[C@@](C)(O1)[C@@H]1CC[C@@H](C)[C@H]1[C@@H]2OC(=O)/C=C/c1ccccc1"
  VALUE REPORTED: 43.7

For reference, reported TGI for `CC(C)[C@@]12C[C@@H](NC(=O)CO)[C@@](C)(O1)[C@@H]1CC[C@@H](C)[C@H]1[C@@H]2OC(=O)c1ccc2ccccc2c1` stands at 27.5

====

- Test system: HT-29
- ASSAY INFO: Growth inhibition of human HT-29 cells incubated for 48 hrs by sulforhodamine B assay
- Format: functional
- COND: HT-29, 48 h
LC50 values for the molecules below.

Use these answered entries as a reference point.
- STRUCTURE SMILES STRING: "CC(C)[C@@]12C[C@@H](NC(=O)CO)[C@@](C)(O1)[C@@H]1CC[C@@H](C)[C@H]1[C@@H]2OC(=O)c1ccc2ccccc2c1"
  VALUE REPORTED: "60.3 µM"
- STRUCTURE SMILES STRING: "CC(C)[C@@]12C[C@@H](NC(=O)CO)[C@@](C)(O1)[C@@H]1CC[C@@H](C)[C@H]1[C@@H]2OC(=O)/C=C/C1CCCCC1"
  VALUE REPORTED: "> 44.7 µM"
- STRUCTURE SMILES STRING: "C/C(=C\\C(=O)O[C@H]1[C@@H]2[C@H](C)CC[C@H]2[C@]2(C)O[C@@]1(C(C)C)C[C@H]2NC(=O)CO)c1ccccc1"
  VALUE REPORTED: "> 100 µM"

Now turn to the next molecule.
Value of measured LC50 for the entry `CC(C)[C@@]12C[C@@H](NC(=O)CO)[C@@](C)(O1)[C@@H]1CC[C@@H](C)[C@H]1[C@@H]2OC(=O)/C=C/c1ccccc1` : > 50.1 µM

====

- Tested on: Malme-3M
- ASSAY INFO: Growth inhibition of human MALME-3M cells assessed as cell growth at 10 uM incubated for 48 hrs by sulforhodamine B assay relative to control
- Type: functional
- COND: read-out: Activity
Entries and their measured growth at 10 µM follow.
Include the unit right after the number.

- STRUCTURE SMILES STRING: "CC(C)[C@@]12C[C@@H](NC(=O)CF)[C@@](C)(O1)[C@@H]1CC[C@@H](C)[C@H]1[C@@H]2OC(=O)/C=C/c1ccccc1"
  TARGET ENTITY: "Malme-3M"
  VALUE REPORTED: "106%"
- STRUCTURE SMILES STRING: "CC(C)[C@@]12C[C@@H](NC(=O)CO)[C@@](C)(O1)[C@@H]1CC[C@@H](C)[C@H]1[C@@H]2OC(=O)c1ccc2ccccc2c1"
  TARGET ENTITY: "Malme-3M"
  VALUE REPORTED: "85.3%"
- STRUCTURE SMILES STRING: "CC(C)[C@@]12C[C@@H](NC(=O)CO)[C@@](C)(O1)[C@@H]1CC[C@@H](C)[C@H]1[C@@H]2OC(=O)/C=C/c1ccccc1"
  TARGET ENTITY: "Malme-3M"
  VALUE REPORTED: "95.2%"
- STRUCTURE SMILES STRING: "C/C(=C\\C(=O)O[C@H]1[C@@H]2[C@H](C)CC[C@H]2[C@]2(C)O[C@@]1(C(C)C)C[C@H]2NC(=O)CO)c1ccccc1"
  TARGET ENTITY: "Malme-3M"
  VALUE REPORTED: "95.9%"

In the following, a different compound is considered.
Notebook: `CC(C)[C@@]12C[C@@H](NC(=O)CO)[C@@](C)(O1)[C@@H]1CC[C@@H](C)[C@H]1[C@@H]2OC(=O)/C=C/C1CCCCC1` , growth at 10 µM read as 109%

====

- System: 786-0
- ASSAY INFO: Growth inhibition of human 786-0 cells incubated for 48 hrs by sulforhodamine B assay
- Type: functional
- COND: 786-0, 48 h
METRIC NAME: GI50 (µM)
Please respond with the number in µM and leave the unit unwritten.

- STRUCTURE SMILES STRING: "CC(C)[C@@]12C[C@@H](NC(=O)CO)[C@@](C)(O1)[C@@H]1CC[C@@H](C)[C@H]1[C@@H]2OC(=O)c1ccc2ccccc2c1"
  TARGET ENTITY: "786-0"
  OUTPUT UNIT: "µM"
  GI50: 13.8
- STRUCTURE SMILES STRING: "CC(C)[C@@]12C[C@@H](NC(=O)CO)[C@@](C)(O1)[C@@H]1CC[C@@H](C)[C@H]1[C@@H]2OC(=O)/C=C/c1ccccc1"
  TARGET ENTITY: "786-0"
  OUTPUT UNIT: "µM"
  GI50: 3.63

Consider the record given below.
Short answer for `C/C(=C\C(=O)O[C@H]1[C@@H]2[C@H](C)CC[C@H]2[C@]2(C)O[C@@]1(C(C)C)C[C@H]2NC(=O)CO)c1ccccc1` : GI50 was 33.9
